MEASURE: logP
// print number alone

// worked examples, logP included
Using the record for COC(=O)NC1=NCC(c2ccccc2Cl)N1C (stereo unspecified) , report its logP.
2.08

Cool, now COC(=O)NC1=NCC(c2cc(Br)ccc2Br)N1C (stereo unspecified)
2.77

Cool, now `NCCCOc1cccc2ccccc12`
1.04

Cool, now COC(=O)NC1=NCC(c2ccc(F)cc2)N1 (stereo unspecified)
1.49

Cool, now COC(=O)NC1=NCC(c2ccccc2F)N1C (stereo unspecified)
1.53

Cool, now COC(=O)NC1=NCC(c2ccc3ccccc3c2)N1 (stereo unspecified)
2.54

Continuing:
Using the record for CCOC(=O)NC1=NCC(c2cccc(F)c2)N1C (stereo unspecified) , report its logP.
1.84

Cool, now `NCCCCCOc1cccc2ccccc12`
1.59
